assay: gradient 5% acetonitrile 3 min, to 50% in 2 min, to 85% in 15 min, held 3 min, 100 µL/min; details: column: Zorbax Extend-C18 2.1 x 50 mm; eluents: water / acetonitrile, 0.1% formic acid
quantity name: RP-LC retention time (s)
Numbers only; they are read as s.

# count of solved cases: 5
> print(dat)
                                   molecule  units.symbol  result.value
1  CCn1cc(-c2nc(-c3cccc(Br)c3)no2)c(=O)c2cc(F)c(N3CCOCC3)cc21             s          1050
2  Cc1ccc(-n2nc(C(=O)N3CCN(c4ccccn4)CC3)c3ncn(C)c(=O)c32)cc1             s           608
3  O=C(CN1C(=O)C2CCCCN2c2ccc(C(=O)N3CCCC3)cc21)NCc1ccc(F)cc1Cl (stereo not drawn)             s           863
4     COc1cccc2nnc(NC(=O)CCC(=O)NCC(C)C)n12             s           587
5  CCn1cc(-c2ccnc3[nH]c(-c4cccc(CN(C)C)c4)cc23)c(-c2ccc(NC(=O)N(C)C)cc2)n1             s           632

Q: RP-LC retention time lookup needed for O=C(Nc1ccc2c(c1)OCO2)c1cn(-c2ccc(F)cc2)nn1 , thanks.
Ans: 885

Q: Please report the recorded RP-LC retention time for CC(Oc1cccc(Cl)c1)c1nc(-c2ccc3c(c2)nnn3CCC(=O)N2CCCC2)no1 (stereo not drawn) .
Ans: 1010

Q: Fill in the blank: the reported RP-LC retention time of CCCn1c(=O)sc2cc(S(=O)(=O)N3CCC(C(=O)Nc4cccc(C)c4)CC3)ccc21 is ____.
Ans: 1010

----------
assay: gradient 5% acetonitrile 3 min, to 50% in 2 min, to 85% in 15 min, held 3 min, 100 µL/min; conditions: column: Zorbax Extend-C18 2.1 x 50 mm; eluents: water / acetonitrile, 0.1% formic acid
quantity name: RP-LC retention time
Note to self: number, then unit, no commentary.

> print(dat)
                                   compound  result.value
1  CCOC(=O)c1c(C)c(CCC(=O)NC(C)c2ccc3c(c2)OCCO3)n(C)c1C (stereo not drawn)         845 s
2  Cn1cc(S(=O)(=O)N2CCC(C(=O)Nc3ccccn3)CC2)cc1C(=O)N1CCCC1         635 s

Below: the item to evaluate.
Q: Looking for the measured RP-LC retention time of Cc1noc(C2CN(C(=O)Nc3cccc(Cl)c3F)CC23CCOCC3)n1 (stereo not drawn) , can you help?
Ans: 783 s

----------
experiment: gradient 5% acetonitrile 3 min, to 50% in 2 min, to 85% in 15 min, held 3 min, 100 µL/min; conditions: column: Zorbax Extend-C18 2.1 x 50 mm; eluents: water / acetonitrile, 0.1% formic acid
Rule: RP-LC retention time of 600 s or more gives criterion met; anything lower gives criterion not met.

Consider the following illustrative entries.
> print(dat)
                                   compound     assigned.label
1  CC1=C(c2ccc(C)c(C)c2)S(=O)(=O)N=C1N1CCCN(C(=O)CC(C)C)CC1      criterion met
2  O=C([C@@H]1C[C@H](F)CN1S(=O)(=O)c1ccc(Br)cc1)N1CCCCC1      criterion met
3  CCCNc1cc(N2CCC(CCC(=O)NCc3ccccn3)CC2)ncn1  criterion not met

Here is another compound to look at.
Q: Hello, I need to know if Cc1cccc(C(=O)NC(C)C(=O)Nc2nc3ccccc3[nH]2)c1 (stereo not given) has measured RP-LC retention time not below 600 s. Thanks!
Ans: criterion met
